assaySummary: Metabolic stability test using human liver microsome
Type: in vitro ADME
conditionInfo: NADPH, 37° C., 25 minutes versus 0 minute, LC/MS peak area
Residual Rate at 25 minutes (%) overview

>  <compound>
CC(C)C[C@H](N[C@@H](c1ccccc1)C(F)(F)F)C(=O)N[C@@H](CCN)CNc1ccc(N2CCOCC2)cc1 [Compound 129]

>  <units>
%

>  <Residual Rate at 25 minutes (%)>
75

$$$$
>  <compound>
CC[C@@H](CNc1ccc(N2CCC(C)(C(=O)O)CC2)cc1)NC(=O)[C@H](CC(C)C)N[C@@H](c1ccccc1)C(F)(F)F [Compound 154]

>  <units>
%

>  <Residual Rate at 25 minutes (%)>
74

$$$$
>  <compound>
CC(C)C[C@H](N[C@@H](c1ccccc1)C(F)(F)F)C(=O)N[C@@H](CCCN)CNc1ccc(N2CCOCC2)cc1 [Compound 127]

>  <units>
%

>  <Residual Rate at 25 minutes (%)>
87

$$$$
>  <compound>
CC(C)(F)C[C@H](N[C@@H](c1ccccc1)C(F)(F)F)C(=O)N[C@@H](CCN)CNc1ccc(N2CCOCC2)cc1 [Compound 130]

>  <units>
%

>  <Residual Rate at 25 minutes (%)>
85

$$$$
